In this section, each of the compounds is paired with its reported Kpu,u (unbound brain-to-plasma ratio).
Assay: Brain levels (kp and kpu,u) after oral administration
Assay type: in vivo, CDI mice
Conditions: CDI, mouse, brain / plasma, po, 20 mg/kg, mice, 20 mpk PO; kp corrected with mouse plasma protein binding and mouse brain homogenate binding

Some solved entries appear below for comparison.
Cc1cc(O)c(-c2nnc(N[C@H]3COC(C)(C)C3)c3cnccc23)c(Cl)c1 (single isomer, unassigned) [Compound 26*] = 0.17
[2H]C([2H])([2H])OC(C)(C)CNc1nnc(-c2ccc(C(F)F)cc2O)c2ccncc12 [Compound 2] = 2.2
CC1(C)C[C@@H](Nc2nnc(-c3ccc(Cl)cc3O)c3ccncc23)CCO1 (single isomer, unassigned) [Compound 4*] = 0.89
Oc1cc(Cl)ccc1-c1nnc(N[C@H]2CCOC2)c2cnccc12 (single isomer, unassigned) [Compound 7*, reference compound] = 0.15
CN1CCO[C@@H](CNc2nnc(-c3ccc(C(F)(F)F)cc3O)c3ccncc23)C1 (single isomer, unassigned) [Compound 6*] = 2.3

input: Tell me measured Kpu,u (unbound brain-to-plasma ratio) for CC1(C)C[C@@H](Nc2nnc(-c3ccc(OC(F)F)cc3O)c3ccncc23)CO1 (single isomer, unassigned) [Compound 9B*] please.
output: 0.52

input: Tell me measured Kpu,u (unbound brain-to-plasma ratio) for CC1(C)OCC[C@H]1Nc1nnc(-c2ccc(C(F)(F)F)cc2O)c2ccncc12 (single isomer, unassigned) [Compound 22] please.
output: 0.34

input: Tell me measured Kpu,u (unbound brain-to-plasma ratio) for CC1(C)COCC[C@@H]1Nc1nnc(-c2ccc(C(F)(F)F)cc2O)c2ccncc12 (single isomer, unassigned) [Compound 15] please.
output: 2.2

input: Tell me measured Kpu,u (unbound brain-to-plasma ratio) for Cc1ccc(-c2nnc(N[C@H]3COC(C)(C)C3)c3cnccc23)c(O)c1 [Compound 5] please.
output: 0.94

input: Tell me measured Kpu,u (unbound brain-to-plasma ratio) for C[C@@H]1C[C@H](Nc2nnc(-c3ccc(Cl)cc3O)c3ccncc23)CCO1 (single isomer, unassigned) [Compound 25A*] please.
output: 0.1

input: Tell me measured Kpu,u (unbound brain-to-plasma ratio) for CC1(C)COCC[C@@H]1Nc1nnc(-c2ccc(Cl)cc2O)c2ccncc12 (single isomer, unassigned) [Compound 3*] please.
output: 2.2

###

Assay: Solubility in phosphate buffered solution (PBS, pH 7.4)
Format: physicochemical
Conditions: phosphate buffered solution (PBS), aqueous buffer, kinetic from dmso stock
In this section, each of the compounds is paired with its reported solubility at 2 h.
Kindly provide the numeric value in µM only, without the unit symbol.

Some solved entries appear below for comparison.
CC1(C)C[C@@H](Nc2nnc(-c3ccc(OC(F)F)cc3O)c3ccncc23)CO1 (single isomer, unassigned) [Compound 9B*] = 45
CC1(C)C[C@H](Nc2nnc(-c3ccc(OC(F)F)cc3O)c3ccncc23)CO1 (single isomer, unassigned) [Compound 9*] = 45
Cc1cc(C)c(-c2nnc(N[C@H]3COC(C)(C)C3)c3cnccc23)c(O)c1 (single isomer, unassigned) [Compound 24*] = 290
Cc1ccc(-c2nnc(N[C@H]3COC(C)(C)C3)c3cnccc23)c(O)c1 [Compound 5] = 180
Cc1cc(O)c(-c2nnc(N[C@H]3COC(C)(C)C3)c3cnccc23)c(F)c1 (single isomer, unassigned) [Compound 21*] = 250
Cc1cc(O)c(-c2nnc(N[C@H]3COC(C)(C)C3)c3cnccc23)c(Cl)c1 (single isomer, unassigned) [Compound 26*] = 280

input: Tell me measured solubility at 2 h for CC1(C)C[C@@H](Nc2nnc(-c3ccc(Cl)cc3O)c3ccncc23)CO1 [Comparative Example 3, reference compound] please.
output: 6.7

Data credit: patent US12331048B2
